Target: T1, full-length cynomolgus GLP1R on HEK293/CRE-Luc/mfGLP1R cells (cynomolgus, UniProt F8V479 24-463)
T1 construct: whole, on cells
Test: flow cytometry, mfGLP1R cells
Consider the following binders; for each one, report its pEC50.
One number for each entry, as −log10 of the molar value.

Here is how some binders turned out for pEC50.
# Binder, pEC50
records = [
    ("REGN8052 (antibody, V domains shown, parental antibody without Q-tag; also called parent of REGN8072) VH: QVQLVESGGGVVQPARSLRLSCAASGFAFSRSAMHWVRQAPGKGLEWVAVISYDGSNKYYTDSVKGRFTISRDNSKNTLYLQMNTLRAEDTALYYCAKMYTTMDSFDYWGQGTLVTVSS VL: DIQLTQSPSFLSASVGDRVTITCWASQGISSYLAWYQQKPGKAPKLLIYAASTLQSGVPSRFSGSGSGTEFTLTISSLQPEDFALYYCQQLNSYPRTFGQGTKVEIK", 8.67),
    ("H1M30345N (antibody, V domains shown) VH: EVQLVESGGGLVKPGGSLRLSCAASGFIFSRYSMNWVRQAPGKGLEWVSSMSSNSKNTYYADSVKGRFTISRDNAKNSLFLQMNTLRAEDTAVYYCARDGYTLRAFDIWGQGTMVTVSS VL: EIVLTQSPGTLSLSPGERDTLSCRASQSIAGRYVAWYQQKPGQAPRLLIYGASSRATGIPDRFSGSGSGTDFTLTISRLEPEDFAVYYCQQYGSSPWTFGQGTKVEIK", 8.45),
    ("REGN8051 (antibody, V domains shown, parental antibody without Q-tag; also called parent of REGN8070) VH: QVQLVESGGGVGQPGRSLRLSCAASGFTFSRNAMHWVRQAPGKGLEWVAVISYDGSNKHYADSVKGRFTISRDNSKNTLYLEMNSLRVEDTAVYYCAKGGIPFDYWGQGTLVTVSS VL: DIVMTQSPLSSPVTLGQPASISCRSSQSLVHFDGNTYLSWLHQRPGQPPRLLIYKISNRFSGVPDRFSGSGAGTDFTLKISRVEPEDVGVYYCMHATQFPYTFGQGTKLEIK", 8.39),
]

Could you now look at the following binder, please?
# input // returns reported pEC50 for input REGN9278 (antibody, human IgG4 S228P, kappa, V domains shown, IgG4; Q-tag on light chain N-terminus; also called mAb 19; REGN9278 unconjugated Ab) VH: QVQLQQWGAGLLKPSETLSLTCAVYGGSFSGYYWSWIRQPPGKGLEWIGEINHAGSTNYNPSLKSRITISVDTSKNQFSLKLSSVTAADTAVYYCARGWYYGSGSYHRNWFDPWGQGTLVTVSS VL: EIVLTQSPGTLSLSPGERATLSCRASQSVYYSYLAWYQQKPGQAPRLLIYGASNRATGIPDRFSGSGSGTDFTLTISRLEPEDFAVYYCQQYGNSPWTFGQGTKVEIKR
# output 8.60
